# reported CHO Rat INSR; entries follow
# SUBJECT_OF_TEST: T1, rat insulin receptor (INSR) on CHOK1 cells (rat, UniProt P15127 27-1383)
# T1 construct: whole, on cells; CHOK1 cells over-expressing rat INSR; also called rat INSR ortholog
# EXPERIMENT: binding to CHO cells expressing rat INSR; 2nd column headed CHO Rat INSR (the 1st column's numbers with more digits); quantity and unit not printed [cont'd]
Number, no unit, nothing else.

See these solved cases before continuing.
INSERT INTO results (binder, property_name, measured_value) VALUES
  ('RHF.15.05896.068 (Fab, V domains shown, Untagged Fab) VH: EVQLVETGGGVVQPGRSLRLSCAASGFKFSSYAMHWVRQAPGKGLEWVAVISYSGGNKYYADSVKGRFTISRDNSKNTLYLQMNSLRAEDTAVYYCARHEWGFGYDYWGQGTTVTVSS VL: DVVMTQSPLSLPVTLGQPASISCRSSQSLVYGDGNTYLNWFQQRPGQSPRRLIYKVSNRDSGVPDRFSGSGSGTEFTLKISRVEAEDVGVYFCMQGTYWPGTFGGGTKLEIKR', 'CHO Rat INSR', 0.533),
  ('RHF.15.05896.020 (Fab, V domains shown, Untagged Fab) VH: EVQLVETGGGVVQPGRSLRLSCAASGFKFSSYAMHWVRQAPGKGLEWVAVISWSGSNKYYADSVKGRFTISRDNSKNTLYLQMNSLRAEDTAVYYCARHEWGFGFDEWGQGTTVTVSS VL: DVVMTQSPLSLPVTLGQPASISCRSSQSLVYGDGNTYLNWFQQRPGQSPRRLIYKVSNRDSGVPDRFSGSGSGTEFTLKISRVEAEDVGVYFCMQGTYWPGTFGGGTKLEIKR', 'CHO Rat INSR', 0.66),
  ('RHF.15.05896.075 (Fab, V domains shown, Untagged Fab) VH: EVQLVETGGGVVQPGRSLRLSCAASGFKFSSYAMHWVRQAPGKGLEWVAVISYSGSNKYYADSVKGRFTISRDNSKNTLYLQMNSLRAEDTAVYYCARHEWGFGYDYWGQGTTVTVSS VL: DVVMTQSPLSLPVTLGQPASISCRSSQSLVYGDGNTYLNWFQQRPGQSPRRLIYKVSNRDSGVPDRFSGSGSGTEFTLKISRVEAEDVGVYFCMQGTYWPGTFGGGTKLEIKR', 'CHO Rat INSR', 0.621);

Field: next binder
Prompt: What measured CHO Rat INSR goes with XPA.15.247.2.018 Fab (Fab, V domains shown, Monomeric Fab; also called XPA.247.2.018) VH: EVQLVETGGGVVQPGRSLRLSCAASGFTFSSYAMHWVRQAPGKGLEWVAVISYSGSNKYYADSVKGRFTISRDNSKNTLYLQMNSLRAEDTAVYYCARHEWGFGFDYWGQGTTVTVSS VL: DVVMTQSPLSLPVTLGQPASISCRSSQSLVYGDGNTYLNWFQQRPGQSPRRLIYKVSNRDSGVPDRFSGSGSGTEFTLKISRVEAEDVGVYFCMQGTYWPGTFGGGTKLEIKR ?
Response: 1.28

Recorded values, source patent US20180251562A1.
